// data source = patent US20260098008A1

target: K2P2.1 (TREK-1) (Mus musculus, UniProt P97438); construct: expressed in transfected cells; host or cells: Xenopus laevis oocytes injected with mRNA (pGEMHE/pMO vector); test: Two-electrode voltage clamp (TEVC) in Xenopus oocytes; assay type: cell-based; settings: Fold-activation at 20 uM in oocytes
Sequence (P97438 1-411 isoform P97438-2): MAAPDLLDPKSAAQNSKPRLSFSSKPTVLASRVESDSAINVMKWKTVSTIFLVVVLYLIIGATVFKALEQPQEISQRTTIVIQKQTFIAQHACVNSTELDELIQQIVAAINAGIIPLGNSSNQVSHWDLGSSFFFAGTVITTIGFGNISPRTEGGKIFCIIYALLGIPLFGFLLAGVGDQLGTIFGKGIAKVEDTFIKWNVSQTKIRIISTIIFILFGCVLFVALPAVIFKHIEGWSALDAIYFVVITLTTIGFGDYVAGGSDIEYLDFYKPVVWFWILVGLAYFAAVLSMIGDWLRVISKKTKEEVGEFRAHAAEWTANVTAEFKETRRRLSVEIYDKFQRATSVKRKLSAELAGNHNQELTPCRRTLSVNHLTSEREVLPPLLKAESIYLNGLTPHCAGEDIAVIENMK

[
  {
    "compound": "C=CC(=O)Nc1ccc(C(=O)NCc2ccc(Cl)cc2Cl)cc1",
    "TREK-1 activity class": "+++ (>5 fold)"
  },
  {
    "compound": "NC(=O)Nc1ccc(C(=O)NCc2ccc(Cl)cc2Cl)cc1",
    "TREK-1 activity class": "+++ (>5 fold)"
  },
  {
    "compound": "O=C(COCCOCCNC(=S)Nc1ccc2c(c1)C(=O)OC21c2ccc(O)cc2Oc2cc(O)ccc21)Nc1ccc(C(=O)NCc2ccc(Cl)cc2Cl)cc1",
    "TREK-1 activity class": "+++ (>5 fold)"
  },
  {
    "compound": "CS(=O)(=O)Nc1ccc2c(c1)OCCN(Cc1ccc(Cl)cc1Cl)C2=O",
    "TREK-1 activity class": "+ (1.5-2.5 fold)"
  },
  {
    "compound": "O=C(NCc1ccc(Cl)cc1Cl)c1ccc(NCC2CO2)cc1 (centres unmarked)",
    "TREK-1 activity class": "++ (2.5-5 fold)"
  },
  {
    "compound": "CC1=CC(=O)N(c2ccc(C(=O)NCc3ccc(Cl)cc3Cl)cc2)C1=O",
    "TREK-1 activity class": "+ (1.5-2.5 fold)"
  },
  {
    "compound": "O=C(NCc1ccc(Cl)cc1Cl)c1ccc(N2C(=O)C=CC2=O)cc1",
    "TREK-1 activity class": "+ (1.5-2.5 fold)"
  },
  {
    "compound": "CNS(=O)(=O)c1ccc(C(=O)NCc2ccc(Cl)c(Cl)c2)cc1",
    "TREK-1 activity class": "+ (1.5-2.5 fold)"
  },
  {
    "compound": "C=C(CCC(=O)O)C(=O)Nc1ccc(C(=O)NCc2ccc(Cl)cc2Cl)cc1",
    "TREK-1 activity class": "++ (2.5-5 fold)"
  },
  {
    "compound": "C=C(CC(=O)O)C(=O)Nc1ccc(C(=O)NCc2ccc(Cl)cc2Cl)cc1",
    "TREK-1 activity class": "+ (1.5-2.5 fold)"
  },
  {
    "compound": "CS(=O)(=O)Nc1ccc(C(=O)NCc2ccc(Br)cc2Cl)cc1",
    "TREK-1 activity class": "++ (2.5-5 fold)"
  }
]
